Molecular target: human DGKα (Homo sapiens, UniProt P23743)
Construct: TVMV protease cleavage site (C); Hexa-His (C); made in house; host or cells: Sf9 insect cells (baculovirus, Bac-to-Bac)
Sequence (P23743 with tags, fused parts or gaps): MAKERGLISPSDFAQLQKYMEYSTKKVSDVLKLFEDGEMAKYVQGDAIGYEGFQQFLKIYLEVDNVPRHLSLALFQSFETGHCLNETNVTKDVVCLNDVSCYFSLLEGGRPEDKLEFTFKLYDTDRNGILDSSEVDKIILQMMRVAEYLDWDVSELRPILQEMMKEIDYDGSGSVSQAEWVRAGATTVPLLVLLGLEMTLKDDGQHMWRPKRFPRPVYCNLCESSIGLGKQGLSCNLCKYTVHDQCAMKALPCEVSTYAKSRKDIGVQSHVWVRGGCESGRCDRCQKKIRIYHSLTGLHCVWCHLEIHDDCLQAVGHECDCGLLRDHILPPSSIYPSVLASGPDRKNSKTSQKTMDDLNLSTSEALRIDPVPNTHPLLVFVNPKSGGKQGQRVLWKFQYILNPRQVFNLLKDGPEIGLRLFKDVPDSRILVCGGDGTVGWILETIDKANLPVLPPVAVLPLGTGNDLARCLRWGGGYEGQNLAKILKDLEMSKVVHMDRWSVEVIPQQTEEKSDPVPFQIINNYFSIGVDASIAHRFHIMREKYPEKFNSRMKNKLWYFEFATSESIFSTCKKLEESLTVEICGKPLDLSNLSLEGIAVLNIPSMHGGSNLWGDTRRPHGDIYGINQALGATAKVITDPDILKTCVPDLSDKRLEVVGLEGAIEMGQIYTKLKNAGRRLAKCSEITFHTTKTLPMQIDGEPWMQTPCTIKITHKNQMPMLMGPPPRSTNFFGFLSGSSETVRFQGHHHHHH
Assay: DGKα LIPGLO assay (extruded liposome substrate), in vitro DGK inhibition
Type: biochemical
Settings: liposome (LIPGLO) assay; read-out: DGKa LIPGLO IC50
pIC50: −log10 of the molar value.
We begin with a simple list: items and their reported pIC50.
parameter_measured: pIC50

compound | parameter_measured | measured_value
COc1cccc(C(c2ccc(F)cc2)N2C[C@H](C)N(c3cc(=O)n(C)c4ccc(C#N)nc34)C[C@H]2C)c1 (single isomer, unassigned) [Example 660] | pIC50 | 4.77
CC(c1ccc(OC(F)(F)F)cc1)N1C[C@H](C)N(c2cc(=O)n(C)c3ccc(C#N)nc23)C[C@H]1C (single isomer, unassigned) [Example 436] | pIC50 | 7.19
CC[C@H]1CN(C(C)c2ccc(C3CC3)cc2F)[C@H](CC)CN1c1cc(=O)n(C)c2ccc(C#N)nc12 (single isomer, unassigned) [Example 1357] | pIC50 | 6.92
